# System: panel of 140 standard cancer cell lines
# test details: ProliFiler-140 cancer cell line screen (CellTiterGlo, 72 h)
# Type: cell-based
# setup conditions: HT-29 (Colon); listed as Dox; read-out: IC50 [M] (ProliFiler-140)
# Method: Incubations were performed for 72 h before automated viability readout with CellTiterGlo (Figure 8). End of Figure S11 (part 5 of 5): ProliFiler-140 cancer cell line screening for cytotoxicity of the prodrugs. 8-data-point dose response curves from CellTiter-Glo® viability readout. ProliFiler-140 cell line panel part V
endpoint: IC50 (M)
Record the value in M, omitting the unit from your answer.

Query (compound): COc1cccc2c1C(=O)c1c(O)c3c(c(O)c1C2=O)C[C@@](O)(C(=O)CO)C[C@@H]3O[C@H]1C[C@H](N)[C@H](O)[C@H](C)O1 [doxorubicin, reference compound] ; field requested: IC50
3.69e-07

###

Listed here: items and their measured log10 of GI50.
# System: NCI-60 standardized human tumor cell line panel
# test details: cells
# Type: cell-based
# setup conditions: TK-10; AZI sheet; read-out: GI50
Scale: log10; quantity: GI50; unit before log: nM

Known results for compounds:
Query (compound): CN1CCN(C(=O)Oc2cc3c(c4ccccc24)C(CCl)CN3C(=O)c2cc3cc(OCCCN4CCC4)ccc3[nH]2)C2CSSCC21 (mixture of isomers) [Me-SS66T-CBI-AZI] ; field requested: log10 of GI50
1.34

Query (compound): CN(CCSSCCN1CCOCC1)C(=O)Oc1cc2c(c3ccccc13)[C@H](CCl)CN2C(=O)c1cc2cc(OCCCN3CCC3)ccc2[nH]1 [SS00M-CBI-AZI] ; field requested: log10 of GI50
2.99

Query (compound): `O=C(c1cc2cc(OCCCN3CCC3)ccc2[nH]1)N1C[C@@H](CCl)c2c1cc(OCc1ccccc1)c1ccccc21` ; field requested: log10 of GI50
2.75

Query (compound): `CN1CCN(C(=O)CCN(C(=O)Oc2cc3c(c4ccccc24)[C@H](CCl)CN3C(=O)c2cc3cc(OCCCN4CCC4)ccc3[nH]2)[C@H]2CCSSC2)CC1` ; field requested: log10 of GI50
3.20

Consider now this further compound.
Query (compound): CN1CCN(C(=O)Oc2cc3c(c4ccccc24)C(CCl)CN3C(=O)c2cc3cc(OCCCN4CCC4)ccc3[nH]2)C2CSSCC21 (mixture of isomers) [Me-SS66C-CBI-AZI] ; field requested: log10 of GI50
1.56

###

# Test system: panel of 140 standard cancer cell lines
# test details: ProliFiler-140 cancer cell line screen (CellTiterGlo, 72 h)
# Format: cell-based
# setup conditions: read-out: IC50 [M] (ProliFiler-140); A2058 (Skin)
# Procedure: Incubations were performed for 72 h before automated viability readout with CellTiterGlo (Figure 8). End of Figure S11 (part 5 of 5): ProliFiler-140 cancer cell line screening for cytotoxicity of the prodrugs. 8-data-point dose response curves from CellTiter-Glo® viability readout. ProliFiler-140 cell line panel part V
endpoint: IC50 (M)
Record the value in M, omitting the unit from your answer.

Hi! What's the reported IC50 for COc1cc2cc(C(=O)N3C[C@@H](CCl)c4c3cc(OC(=O)N3CCN(C(=O)CCC(=O)N5CCN(C)CC5)[C@H]5CSSC[C@H]53)c3ccccc43)[nH]c2c(OC)c1OC [P-SS66C-CBI-TMI] on panel of 140 standard cancer cell lines?
1.09e-08
